tested on: HCMV (strain AD169, ATCC VR-538); experiment: Plaque Reduction Assay (PRA), HCMV-infected Hs-68 cells; assay type: cell-based, human cytomegalovirus (HCMV); settings: Human betaherpesvirus 5, Hs68; plaque reduction, Hs-68 cells, HCMV strain AD169; Table 1 and Table 2; read-out: EC50
Property: EC50 (µM)
Output spec: scalar in µM, unitless text.

Smiles Text	Property	Reading
C[C@@H](NC(=O)N1C(=O)C[C@@H]1Sc1ccccc1)c1ccccc1	EC50	40

Next item in the queue.
Ask | Record request: EC50 value, item C[C@@H](NC(=O)N1C(=O)C[C@@H]1SCc1ccccn1)c1ccccc1
Reply | 60
